Values compiled from PubChem BioAssay (EPA / NIEHS).

Read-out: Fatty acid synthase (Homo sapiens)
Assay: LTEA_HepaRG_FASN: Life Technologies and Expression Analysis (LTEA) Assay for Fatty Acid Synthase (FASN) using HepaRG (AID 2283448)
Conditions: mRNA level, 48 h; actives raise or lower the signal
Protocol: LTEA_HepaRG is a cell based, multiplexed-readout assay that uses HepaRG, a human liver cell line, with measurements taken at 48 hours after chemical dosing on a 96-well plate.LTEA_HepaRG_FASN is one of 102 assay component(s) measured in the LTEA HepaRG cell culture assay. It is a marker of Steatosis.Data from the assay component LTEA_HepaRG_FASN was analyzed into 1 endpoint. […]
The source made the active and inactive calls. The calls were made as follows: active = hit-call score of the fitted dose curve at least 0.9, where 1 is the maximum; inactive = score below 0.9.
Possible outcomes: TRUE (active), FALSE (inactive)

                           smiles_structure  assigned_class
0       CC/C(=C(/CC)c1ccc(O)cc1)c1ccc(O)cc1            TRUE
1  CC[C@H](NC(=O)c1cc(F)ccc1NS(=O)(=O)c1cccc2cccnc12)c1ccccc1           FALSE
2                           Oc1ccc2ccccc2c1           FALSE

---

Experiment: ATG_PXRE_CIS: Attagene CIS-FACTORIAL HepG2 Assay for human Pregnane X Receptor Element (PXRE) (AID 2282957)
Settings: HepG2 Attagene CIS-FACTORIAL PXRE reporter, mRNA; actives raise or lower the signal
Active and inactive are the calls of the source. The calls were made as follows: active = hit-call score of the fitted dose curve at least 0.9, where 1 is the maximum; inactive = score below 0.9.
Possible outcomes: active, inactive

                                    compound  assigned_class
 0  NCc1cccc(C2CCN(C(=O)c3ccc(C#Cc4ccccc4F)o3)CC2)c1        inactive
 1              c1ccc(C[n+]2cccc3ccccc32)cc1        inactive
 2                                      OCCO        inactive
 3  Cc1oc2c(NC(=O)c3c(Cl)cccc3Cl)cccc2c1C(C)(C)O          active
 4                                 Oc1ccccc1        inactive
 5                          CCCC(=O)OCCC(C)C        inactive
 6  CC[C@@H]1C[C@H](N(Cc2cc(C(F)(F)F)cc(C(F)(F)F)c2)C(C)=O)c2cc(C(F)(F)F)ccc2N1C(=O)OC(C)C          active
 7  CC(=O)N1CCN(c2ccc(OC[C@H]3CO[C@](Cn4ccnc4)(c4ccc(Cl)cc4Cl)O3)cc2)CC1          active
 8  Cc1cn([C@H]2C[C@H](N=[N+]=[N-])[C@@H](CO)O2)c(=O)[nH]c1=O        inactive
 9                      O=C1CCC(C2CCCCC2)CC1          active
10  CC(C)(C)c1csc(-c2cc3cc(OCc4ccccc4CC(=O)O)ccc3o2)n1        inactive
11  CCN(Cc1cccnc1)C(=O)c1cccc(Cl)c1[C@]1(C)C(=O)N(Cc2ccc(OC)cc2OC)c2ccc(Cl)cc21          active
12  CN1C(=O)N(c2ccccc2Br)Cc2cnc(Nc3ccc4c(c3)OCC(CO)O4)nc21 (stereo not given)        inactive
13  Cc1ccc2oc(CN(Cc3ccccc3)C(=O)Nc3c(F)cc(F)cc3F)c(-c3ccc(Cl)cc3)c2c1          active
14  O=C(O)Cn1c(=O)n(Cc2ccc(Br)cc2F)c(=O)c2ccc(Cl)cc21          active
15  CN(C)c1ccc(C(=C2C=CC(=[N+](C)C)C=C2)c2ccc(N(C)C)cc2)cc1          active
16  Cc1cc2c(cc1C(F)(F)F)N(C(=O)Nc1ccc(Oc3cccnc3C)nc1)CC2        inactive
17  Cc1cc(F)ccc1-c1cc(N2CC[C@@H](O)[C@H]2CO)ncc1N(C)C(=O)C(C)(C)c1cc(C(F)(F)F)cc(C(F)(F)F)c1          active
18  O=C(O)c1ccccc1-n1cc(C(=O)O)c(=O)c2cc(Nc3c(F)cc(F)cc3Cl)c(Cl)cc21          active
19  CCN(Cc1cccc(S(=O)(=O)O)c1)c1ccc(C(=C2C=CC(=[N+](CC)Cc3cccc(S(=O)(=O)O)c3)C=C2)c2ccccc2S(=O)(=O)[O-])cc1        inactive
20                                 O=CCCCC=O        inactive
21  CN(C)C(=O)C1(N2CCCCC2)CCN(CC[C@@]2(c3ccc(Cl)c(Cl)c3)CN(C(=O)c3ccccc3)CCO2)CC1          active
22                          O=C=NCCCCCCN=C=O        inactive
23                  CN1C(=O)CC[C@H]1c1cccnc1        inactive
24                              CCCCCCCCCCCO        inactive

---

Read-out: succinate dehydrogenase complex iron sulfur subunit B (SDHB), SDHB (gene 6390)
Assay: LTEA_HepaRG_SDHB: Life Technologies and Expression Analysis (LTEA) Assay for succinate dehydrogenase complex iron sulfur subunit B (SDHB) using HepaRG (AID 2283528)
Details: mRNA level, 48 h; actives raise or lower the signal
Procedure: LTEA_HepaRG is a cell based, multiplexed-readout assay that uses HepaRG, a human liver cell line, with measurements taken at 48 hours after chemical dosing on a 96-well plate.LTEA_HepaRG_SDHB is one of 102 assay component(s) measured in the LTEA HepaRG cell culture assay. It is a marker of Cell proliferation, survival, death.Data from the assay component LTEA_HepaRG_SDHB was analyzed into 1 endpoint. […]
Active and inactive are the calls of the source. Rule for the calls: active = hit-call score of the fitted dose curve at least 0.9, where 1 is the maximum; inactive = score below 0.9.
Possible outcomes: active, inactive

In [3]: df
Out[3]:
                                    compound  assigned_class
 0                             CCCCCCCCCCCCO        inactive
 1           O=C1O[C@H]([C@@H](O)CO)C(O)=C1O        inactive
 2  CCN(Cc1cccnc1)C(=O)c1cccc(Cl)c1[C@]1(C)C(=O)N(Cc2ccc(OC)cc2OC)c2ccc(Cl)cc21        inactive
 3                           Cc1cccc2ccccc12        inactive
 4                          O=c1ccc2ccccc2o1        inactive
 5                  CN1C(=O)CC[C@H]1c1cccnc1        inactive
 6           CCCCCCCCOC(=O)c1cc(O)c(O)c(O)c1        inactive
 7  CC[C@H](NC(=O)c1cc(F)ccc1NS(=O)(=O)c1cccc2cccnc12)c1ccccc1        inactive
 8  CN1C(=O)N(c2ccccc2Br)Cc2cnc(Nc3ccc4c(c3)OCC(CO)O4)nc21 (stereo not given)          active
 9                              CCCCCCCCCCCO        inactive
10       CCCCCCCCOc1ccc(C(=O)c2ccccc2)c(O)c1        inactive
11                      CCCCCCCCN(C)CCCCCCCC        inactive
12                                 Oc1ccccc1        inactive
13  NCc1cccc(C2CCN(C(=O)c3ccc(C#Cc4ccccc4F)o3)CC2)c1        inactive
14   COCC(C)OCC(C)OCC(C)O (stereo not given)        inactive
15  C[C@]12CC[C@@H]3c4ccc(O)cc4CC[C@H]3[C@@H]1CC[C@H]2O        inactive
16                           Oc1ccc2ccccc2c1        inactive
17            Clc1cc(Cl)c2c(c1)N=C1CCCCCN1C2        inactive
18         CC(O)CC(C)(C)O (stereo not given)        inactive
19  CC[C@@H]1C[C@H](N(Cc2cc(C(F)(F)F)cc(C(F)(F)F)c2)C(C)=O)c2cc(C(F)(F)F)ccc2N1C(=O)OC(C)C        inactive

---

Read-out: Vascular cell adhesion molecule 1 (VCAM1), VCAM1 (gene 7412)
Assay: BSK_4H_VCAM1: BioMAP Diversity Plus: 4H Assay for Vascular cell adhesion molecule 1 (VCAM1) Biomarker Activity (AID 2283033)
Conditions: primary human endothelial cells (HUVEC); actives raise or lower the signal
Activity calls are given as the source filed them. The calls were made as follows: active = hit-call score of the fitted dose curve at least 0.9, where 1 is the maximum; inactive = score below 0.9.
Possible outcomes: yes (1) (active), no (0) (inactive)

In [3]: df
Out[3]:
                             compound  assigned_class
0  CC(O)CC(C)(C)O (centres undefined)          no (0)
1     CCCCCCCCOC(=O)c1cc(O)c(O)c(O)c1         yes (1)
2                           O=CCCCC=O         yes (1)
3          CCCOC(=O)c1cc(O)c(O)c(O)c1         yes (1)
